- System: M-07e cells
- Protocol Summary: M-07e cellular assay (SCF-mediated cell proliferation)
- Format: cell-based
- Protocol Conditions: Homo sapiens, 72 hours, CellTiter Glo
Property Label: EC50

Lookup: # EC50 lookup, item Cc1ncc(-c2noc(C3CC(F)(F)C3)n2)cc1NC(=O)c1cnn2ccc(N3CC4(C3)CC(O)(C(F)F)C4)cc12 [Example 281-69]
Found: < 100 nM

Lookup: Next entry: Cc1ccc(-c2noc([C@H]3C[C@@H]3F)n2)cc1NC(=O)c1cnn2ccc(-c3cn(C(F)F)nn3)cc12 [Example 111]
Found: < 100 nM

Lookup: Same question, Cc1ccc(-c2noc([C@H]3C[C@@H]3F)n2)cc1NC(=O)c1cnn2ccc(N3CCOCC3)cc12 [Example 241] this time
Found: < 100 nM

* * *

- Target Entity: Recombinant human c-KIT kinase (Homo sapiens (Human))
- Sequence (P10721 26-976): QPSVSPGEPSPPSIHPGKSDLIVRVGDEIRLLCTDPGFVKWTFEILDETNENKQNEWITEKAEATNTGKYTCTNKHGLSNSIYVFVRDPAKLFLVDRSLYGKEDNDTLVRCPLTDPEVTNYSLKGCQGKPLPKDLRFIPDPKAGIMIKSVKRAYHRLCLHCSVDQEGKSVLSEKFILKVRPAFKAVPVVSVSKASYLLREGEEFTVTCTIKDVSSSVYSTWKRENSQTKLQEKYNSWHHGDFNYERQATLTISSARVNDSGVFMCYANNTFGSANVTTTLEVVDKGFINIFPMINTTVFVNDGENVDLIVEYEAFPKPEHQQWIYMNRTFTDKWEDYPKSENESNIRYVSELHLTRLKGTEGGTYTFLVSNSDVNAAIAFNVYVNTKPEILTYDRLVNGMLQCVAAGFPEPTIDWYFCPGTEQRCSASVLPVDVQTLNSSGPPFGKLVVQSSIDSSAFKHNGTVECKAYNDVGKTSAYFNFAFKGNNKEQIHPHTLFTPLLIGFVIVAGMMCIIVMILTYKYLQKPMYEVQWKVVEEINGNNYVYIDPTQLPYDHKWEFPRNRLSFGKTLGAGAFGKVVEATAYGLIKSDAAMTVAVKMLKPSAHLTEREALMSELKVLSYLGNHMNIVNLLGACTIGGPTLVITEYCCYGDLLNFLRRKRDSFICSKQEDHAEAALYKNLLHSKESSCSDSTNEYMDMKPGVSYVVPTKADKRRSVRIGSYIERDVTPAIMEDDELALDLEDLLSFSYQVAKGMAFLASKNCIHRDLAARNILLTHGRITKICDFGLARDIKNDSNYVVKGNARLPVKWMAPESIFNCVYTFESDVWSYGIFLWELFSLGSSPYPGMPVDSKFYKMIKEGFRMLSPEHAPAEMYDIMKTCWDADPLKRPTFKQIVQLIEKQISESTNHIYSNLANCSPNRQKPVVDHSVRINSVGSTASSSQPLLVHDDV
- Protocol Summary: c-KIT kinase chemiluminescence assay (ADP-Glo)
- Protocol Conditions: ATP 50 μM
pIC50: −log10 of the molar value.
Property Label: pIC50

Lookup: Name the recorded pIC50 for `Cc1ccc(-c2noc([C@H]3C[C@@H](OC(F)F)C3)n2)cc1NC(=O)c1cnn2ccc(N3CC4(CCN(CC(F)F)C4)C3)cc12` .
Found: 6.00 to 7.00

Lookup: Subsequent entry: `Cc1ccc(-c2noc([C@H]3C[C@@H]3F)n2)cc1NC(=O)c1cnn2ccc(N3CC4CC(C3)O4)cc12`
Found: > 7.00

Lookup: Would you kindly repeat that for `Cc1ccc(-c2noc([C@H]3C[C@@H]3F)n2)cc1NC(=O)c1cnc(-c2ccc3[nH]c4c(c3c2)CCN(C(=O)OC(C)(C)C)C4)o1` ?
Found: 6.00 to 7.00

Lookup: Next molecule: `Cc1ccc(-c2noc(C3CN(CC(F)(F)F)C3)n2)cc1NC(=O)c1cnn2ccc(N3CC4(COC4)C3)cc12`
Found: > 7.00

Lookup: Moving on to `Cc1ncc(-c2noc(C3CN(C(=O)C4CC4)C3)n2)cc1NC(=O)c1cnn2ccc(N3CC4(C3)CC(O)(C(F)F)C4)cc12`
Found: < 6.00

* * *

Exercise: state measured EC50 for each of the compounds provided.
- Test system: M-07e cells
- Protocol Summary: M-07e cellular assay (SCF-mediated cell proliferation)
- Format: cell-based
- Protocol Conditions: Homo sapiens, 72 hours, CellTiter Glo

Lookup: Any idea what EC50 was measured for `Cc1ccc(-c2noc([C@H]3C[C@@H]3F)n2)cc1NC(=O)c1cnc2sccn12` ?
Found: 100 to 1000 nM

Lookup: Try this compound next: `Cc1cc(F)c(-c2noc([C@H]3C[C@@H]3F)n2)cc1NC(=O)c1cnn2ccc(N3CC4(C3)CC(O)(C(F)F)C4)cc12`
Found: < 100 nM

Lookup: Check `Cc1ccc(-c2noc([C@H]3C[C@@H]3F)n2)cc1NC(=O)c1cnn2ccc(N3CC(CO)(CCl)C3)cc12` too.
Found: < 100 nM

Lookup: Now the compound `Cc1cc(C)c(-c2ccn3ncc(C(=O)Nc4cc(-c5noc([C@H]6C[C@@H]6F)n5)ccc4C)c3c2)cn1`
Found: < 100 nM

Lookup: // repeat for `COC(=O)N1CC(c2nc(-c3ccc(C)c(NC(=O)c4cnn5ccc(N6CC7(COC7)C6)cc45)c3)no2)C1` and report
Found: < 100 nM

Lookup: Record: `CC(=O)N1CCC(c2nc(-c3cnc(C)c(NC(=O)c4cnn5ccc(N6CC7(C6)CC(O)(C(F)F)C7)cc45)c3)no2)CC1`
Found: > 1000 nM

Lookup: What would you report for `Cc1ccc(-c2ncc3cccn3n2)cc1NC(=O)c1cnn2ccc(N3CC4(C3)CC(O)(C(F)F)C4)cc12` ?
Found: < 100 nM

Lookup: Same for `Cc1ccc(-c2noc([C@@H]3C[C@@H]3C(F)F)n2)cc1NC(=O)c1cnn2ccc(N3CC4(COC4)C3)cc12`
Found: < 100 nM

Lookup: Next up: `Cc1ccc(-c2noc([C@H]3C[C@@H]3F)n2)cc1NC(=O)c1cnn2ccc(-c3ccc(C#N)nc3C)cc12`
Found: < 100 nM

Lookup: Next: `Cc1ncc(-c2nnn(C3CN(C(=O)OC(C)(C)C)C3)n2)cc1NC(=O)c1cnn2ccc(N3CC4(C3)CC(O)(C(F)F)C4)cc12`
Found: 100 to 1000 nM

Lookup: Now consider `COC(=O)N1CC(c2nc(-c3cnc(C)c(NC(=O)c4cnn5ccc(N6CC7(COC7)C6)cc45)c3)no2)C1` .
Found: 100 to 1000 nM

Lookup: Again, but for `Cc1ccc(-c2noc([C@H]3C[C@@H]3F)n2)cc1NC(=O)c1cnn2cc(-c3cncnc3)ccc12`
Found: 100 to 1000 nM

Lookup: Another compound to look at: `O=C(Nc1cc(-c2noc([C@H]3C[C@@H]3F)n2)ccc1C(F)F)c1cnn2ccc(N3CC4(C3)CC(O)(C(F)F)C4)cc12`
Found: < 100 nM

Lookup: Try this compound next: `Cc1ccc(-c2noc([C@H]3C[C@@H]3F)n2)cc1NC(=O)c1cnn2ccc(-c3c(C)nn(C4COC4)c3C)cc12`
Found: < 100 nM

Lookup: # repeat for `COCCn1nc(C)c(-c2ccn3ncc(C(=O)Nc4cc(-c5noc([C@H]6C[C@@H]6F)n5)ccc4C)c3c2)c1C`
Found: < 100 nM

Lookup: For `Cc1ccc(-c2cnc(N3CC(O)(C(F)(F)F)C3)nc2)cc1NC(=O)c1cnn2ccc(N3CC4(COC4)C3)cc12` then?
Found: < 100 nM
